Recorded IC50 values for a group of molecules are listed next.
TESTED SYSTEM: CD73 activity in U138-MG cells (Homo sapiens (Human))
Sequence (P21589 27-574): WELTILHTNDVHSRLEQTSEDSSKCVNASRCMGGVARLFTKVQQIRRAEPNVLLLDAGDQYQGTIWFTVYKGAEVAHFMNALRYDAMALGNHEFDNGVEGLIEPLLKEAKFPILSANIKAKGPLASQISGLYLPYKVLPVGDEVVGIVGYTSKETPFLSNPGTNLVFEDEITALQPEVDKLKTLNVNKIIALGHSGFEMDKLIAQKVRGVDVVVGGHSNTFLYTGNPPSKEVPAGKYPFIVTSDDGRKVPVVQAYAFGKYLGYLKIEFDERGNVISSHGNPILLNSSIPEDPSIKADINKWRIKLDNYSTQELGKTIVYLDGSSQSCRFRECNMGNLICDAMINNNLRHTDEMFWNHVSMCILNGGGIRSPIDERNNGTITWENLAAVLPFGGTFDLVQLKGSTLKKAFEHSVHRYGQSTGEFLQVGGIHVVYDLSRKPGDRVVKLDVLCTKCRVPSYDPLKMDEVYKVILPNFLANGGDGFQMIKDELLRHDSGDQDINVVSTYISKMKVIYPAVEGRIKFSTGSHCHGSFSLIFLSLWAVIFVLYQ
EXPERIMENT: U138-MG inhibition assay (inorganic phosphate from AMP, PiColorLock Gold)
MEASUREMENT SETUP: 100 μM AMP, 30 min pre-incubation, 1 hour at 37° C.
Structures can show the parent of a compound that is named as a salt.
Give the value in nM but do not write nM after it.

Data request: Give a short answer stating reported IC50 for "CC1(C)CN(c2ccnc3nn(-c4c[nH]c(=O)[nH]c4=O)cc23)CC1(F)F" .
Data returned: 12

Data request: Give a short answer stating reported IC50 for "Cc1nc(N2CC(C)(C)C(F)(F)C2)c2cn(-c3c[nH]c(=O)[nH]c3=O)nc2n1" .
Data returned: 10.5

Data request: Give a short answer stating reported IC50 for O=C1N=CC(c2cc3c(N4CCC(OCCN5CCCCC5)C4)nc(Cl)nn3c2)C(=O)N1 (stereo not drawn) .
Data returned: 91.1

Data request: Give a short answer stating reported IC50 for COC1CN(c2ncc(Cl)n3nc(-c4c[nH]c(=O)[nH]c4=O)cc23)CC1(F)F (stereo not drawn) .
Data returned: 7

Data request: Give a short answer stating reported IC50 for O=c1[nH]cc(-c2cc3c(N4CCC(OCCN5CCCCC5)C4)ncnc3o2)c(=O)[nH]1 (stereo not drawn) [Example 7, formate salt] .
Data returned: 7.2

Data request: Give a short answer stating reported IC50 for O=c1[nH]cc(-n2cc3c(N4CC(O)C(F)(F)C4)ncc(F)c3n2)c(=O)[nH]1 (stereo not drawn) .
Data returned: 16

Data request: Give a short answer stating reported IC50 for "O=c1[nH]cc(-c2cc3c(N4CC(F)(F)C5(CC5)C4)ncnc3o2)c(=O)[nH]1" .
Data returned: 28.3

Data request: Give a short answer stating reported IC50 for "CCC1(CC)CCN(c2ncnc3nn(-c4c[nH]c(=O)[nH]c4=O)cc23)C1" .
Data returned: 20.9

Data request: Give a short answer stating reported IC50 for "O=c1[nH]cc(-n2cc3c(N4CC(F)(F)C5(CCCC5)C4)ncnc3n2)c(=O)[nH]1" .
Data returned: 4.5

Data request: Give a short answer stating reported IC50 for "O=c1[nH]cc(-c2cc3c(N4CC(F)(F)C5(CC5)C4)nccn3n2)c(=O)[nH]1" .
Data returned: 58.8

Data request: Give a short answer stating reported IC50 for "O=c1[nH]cc(-n2cc3c(N4CC(F)(F)C5(CC5)C4)ncnc3n2)c(=O)[nH]1" .
Data returned: 2.4

Data request: Give a short answer stating reported IC50 for O=c1[nH]cc(-c2cc3ncnc(N4CCC(OCCN5CCCCC5)C4)c3s2)c(=O)[nH]1 (stereo not drawn) .
Data returned: 34.7

---

TESTED SYSTEM: CD73 activity in U138-MG cells (Homo sapiens (Human))
EXPERIMENT: U138-MG inhibition assay (inorganic phosphate from AMP, PiColorLock Gold)
MEASUREMENT SETUP: 100 μM AMP, 30 min pre-incubation, 1 hour at 37° C.
Structures can show the parent of a compound that is named as a salt.
Recorded IC50 values for a group of molecules are listed next.
Give the value in µM but do not write µM after it.

Below, 3 molecules whose answers are already recorded.
INSERT INTO assay_data (molecule, result_type, recorded_number) VALUES
  ('CC1(C)CN(c2ccnc3sc(-c4c[nH]c(=O)[nH]c4=O)cc23)CC1(F)F', 'IC50', 1.32),
  ('O=c1[nH]cc(-n2cc3c(N4C[C@H]5CCC[C@H]5C4)ncnc3n2)c(=O)[nH]1', 'IC50', 0.0353),
  ('O=c1[nH]cc(-n2cc3c(N4CCC(OCCN5CCCCC5)C4)ncnc3n2)c(=O)[nH]1 (stereo not shown) [Example 12, hydrochloride]', 'IC50', 0.0027);

Attention now shifts to the item below.
Data request: Give a short answer stating reported IC50 for "CC1(C)CCN(c2ncnc3nn(-c4c[nH]c(=O)[nH]c4=O)cc23)C1" .
Data returned: 0.0086
